Tested on: HOP-62 NSCLC
protocol-notes: NCI-60 one-dose screen, 48 h (100 = growth as untreated, 0 = no growth, -100 = all killed)
test-settings: 10 µM unless noted
This is part of a sample that, as a whole, favours compounds with a hit. Of some 83,000 tested, about 20% had one in any assay.
Hi there, I'd appreciate the recorded growth for every entry that follows.
Answers are plain numbers, in %.

compound	measured-property	meas-value
Cn1c2ccccc2c2c3[nH]c(=O)[nH]c(=O)c3c3c4ccccc4n(C)c3c21	growth	38.1

Could I get growth for every one of these entries?
1. CCc1ccc(C(c2ccc(CC)cc2)C(Cl)(Cl)CCl)cc1
2. O=C(Nc1cccc2c1C(=O)c1cccc(Nc3cccc4c3C(=O)c3cccc(NC(=O)c5ccccc5)c3C4=O)c1C2=O)c1ccccc1
3. O=C1NC(=O)C(CC(=O)n2c(-c3ccccc3)nc3ccccc32)C(=O)N1
4. CCN(CC)CCC(=O)c1ccc(OC)c2ccccc12
5. CN1Cc2c(cc(CN3CCCCC3)n2C)C(c2ccc(Br)cc2)C1 (centres undefined)
6. CCCCCCCCCCCCCCCC(=O)OCC1OC(n2cnc3c(=S)nc(N)[nH]c32)C(OC(=O)CCCCCCCCCCCCCCC)C1OC(=O)CCCCCCCCCCCCCCC (centres undefined)

// result
1: 99.1; 2: 104; 3: 94.4; 4: 83.4; 5: 91.1; 6: 47.8

----------
I'd appreciate it if you could supply growth values for the items below.
Test system: OVCAR-3 ovarian
protocol-notes: NCI-60 one-dose screen, 48 h (100 = growth as untreated, 0 = no growth, -100 = all killed)
test-settings: 10 µM unless noted
Compounds without any hit were thinned out: in the full panel of roughly 83,000, 20% have a hit.
Give bare numbers, in %.

# count of solved cases: 5
Cc1cc(Nc2nc(N3CCOCC3)nc3ccccc23)n[nH]1 58.6
O=C(O)c1ccc2c(c1Sc1ccccc1)C(=O)c1ccccc1C2=O 89.6
CCCCCCCCCCCCCCCC[N+]1(CC)CCCC1 -52.5
CC1=N/C(=C\c2cccc(Br)c2)C(=O)O1 103
CCCCCCCCCCCCCC1=NCCN1CCO 164

We next turn to a different compound, shown below.
The value of growth recorded for O=S(=O)(Nc1ccc(Cl)cc1Cl)c1ccc(-c2cnc(C3CC3)o2)cc1 when tested on OVCAR-3 ovarian reads -17.8

----------
Kindly state growth for each of the entries shown.
System: NCI-H23 lung
protocol-notes: NCI-60 one-dose screen, 48 h (100 = growth as untreated, 0 = no growth, -100 = all killed)
test-settings: 10 µM unless noted
About 83,000 compounds went through this panel and 20% of them were active in at least one assay; those are over-represented in the sample as a whole. Calls of active or inactive are those of the source. How the source made its calls: active means growth percent below 10; inactive means the rest.

Look over these answered cases.
COc1ccc(CN2C(=O)/C(=C\c3cc(OC)c(OC)c(OC)c3)c3cc(OC)ccc32)cc1 -44% (active)
Cl/C(=N\Nc1ccccc1)c1ccccc1 91.4% (inactive)
CNCCCn1c2c(c3ccc([N+](=O)[O-])cc3c1=O)C(=O)c1cc(OC)cnc1-2 -55.4% (active)
CCOC(=O)C(=Cc1ccccc1F)C(=O)OCC 99.2% (inactive)
COc1ccc(C/C(C)=C(\c2ccc(Cl)cc2)c2ccc(OCCN3CCCCCC3)cc2)cc1 78.8% (inactive)
Cc1ccc(/C=C2\Oc3cc(OCC(=O)c4ccc(Cl)cc4)ccc3C2=O)cc1 90.1% (inactive)

Would you mind listing growth for each of the following compounds?
1. Nc1nc(SCc2ccccc2)c2ncn(C3CCCC3)c2n1
2. O=C(O)c1cccc2c1-c1ccccc1C2=O
3. CSc1nc2sc3c(c2c(=O)n1-c1ccc(C(C)C)cc1)CCC(=O)C3

// result
1: 85.7% (inactive); 2: 98.4% (inactive); 3: -1.79% (active)
